# target system: vanilloid receptor 1 (VR1/TRPV1 receptor) (Homo sapiens)
# Construct: expressed in transfected cells; host or cells: CHO K1 cells (ECACC), stably transfected
# Sequence (Q8NER1 whole entry): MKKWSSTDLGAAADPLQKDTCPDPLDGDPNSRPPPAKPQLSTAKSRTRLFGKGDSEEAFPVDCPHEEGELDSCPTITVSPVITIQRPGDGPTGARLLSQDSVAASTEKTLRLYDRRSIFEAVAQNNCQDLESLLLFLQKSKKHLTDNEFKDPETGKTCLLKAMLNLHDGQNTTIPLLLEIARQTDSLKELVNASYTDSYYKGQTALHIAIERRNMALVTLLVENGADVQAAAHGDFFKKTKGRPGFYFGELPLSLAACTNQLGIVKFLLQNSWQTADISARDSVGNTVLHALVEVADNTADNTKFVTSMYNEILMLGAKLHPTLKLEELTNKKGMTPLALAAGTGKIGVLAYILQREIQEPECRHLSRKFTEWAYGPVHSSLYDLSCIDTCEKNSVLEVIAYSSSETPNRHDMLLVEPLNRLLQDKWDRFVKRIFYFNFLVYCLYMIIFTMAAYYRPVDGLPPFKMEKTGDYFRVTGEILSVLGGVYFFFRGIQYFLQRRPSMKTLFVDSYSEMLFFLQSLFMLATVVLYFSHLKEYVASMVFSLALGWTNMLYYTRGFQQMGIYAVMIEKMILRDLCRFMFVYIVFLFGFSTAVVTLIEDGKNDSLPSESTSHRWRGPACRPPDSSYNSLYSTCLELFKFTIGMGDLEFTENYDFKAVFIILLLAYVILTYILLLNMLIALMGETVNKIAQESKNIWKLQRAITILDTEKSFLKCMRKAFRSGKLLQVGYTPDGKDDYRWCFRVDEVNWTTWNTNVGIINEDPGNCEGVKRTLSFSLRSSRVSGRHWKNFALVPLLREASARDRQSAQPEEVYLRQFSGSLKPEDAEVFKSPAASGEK
# assay text: Functional testing on vanilloid receptor 1: FLIPR Ca2+ influx assay against capsaicin (Cap) in transfected CHO K1 cells (pharmacological method II); further: 100 nM capsaicin
# Format: cell-based
# particulars: read-out: (f) Ki (human being) [nM] Cap
Form field: log10(Ki) (one value per entry).
measured parameter: log10(Ki) (log10 of the value in nM)

INSERT INTO results (compound, measured_number) VALUES
  ('COc1ccc(-n2nc(C(F)(F)F)cc2CNC(=O)Nc2ccc(CO)c(F)c2)cc1F [A95]', 1.11),
  ('CC(C)(C)c1cc(CNC(=O)Nc2ccc(C3(O)COC3)c(F)c2)n(-c2cccc(Cl)c2)n1 [A109]', 1.63),
  ('CC(C(=O)NCc1cc(C(F)(F)F)nn1-c1ccc(F)c(Cl)c1)c1ccc(CO)c(F)c1 (stereo not drawn) [A42]', 0.48),
  ('Cc1cc(F)cc(-n2nc(C(F)(F)F)cc2CNC(=O)Nc2ccc(CO)c(F)c2)c1 [A77]', 1.28),
  ('Cc1ccc(-n2nc(C(F)(F)F)cc2CNC(=O)Nc2ccc(CO)c(F)c2)cc1C [A75]', 1.28),
  ('COc1c(F)cc(CC(=O)NCc2cc(C(F)(F)F)nn2-c2ccc(F)c(Cl)c2)cc1F [A7]', 1.41),
  ('CC(C(=O)NCc1cc(C2CC2)nn1-c1cccc(Cl)c1)c1ccc(CO)c(F)c1 (stereo not drawn) [A31]', 0.48),
  ('CCOc1cc(C)cc(-n2nc(C(F)(F)F)cc2CNC(=O)Nc2ccc(CO)c(F)c2)c1 [A93]', 1.26),
  ('O=C(NCc1cc(C2CC2)nn1-c1cccc(Cl)c1)Nc1ccc(CO)c(F)c1 [A53]', 1.26);

Origin of measurements: patent EP2776398B1
